# subject_of_test: Mannose-6-phosphate isomerase (Homo sapiens) (UniProt P34949)
# Sequence (P34949 whole entry, looked up): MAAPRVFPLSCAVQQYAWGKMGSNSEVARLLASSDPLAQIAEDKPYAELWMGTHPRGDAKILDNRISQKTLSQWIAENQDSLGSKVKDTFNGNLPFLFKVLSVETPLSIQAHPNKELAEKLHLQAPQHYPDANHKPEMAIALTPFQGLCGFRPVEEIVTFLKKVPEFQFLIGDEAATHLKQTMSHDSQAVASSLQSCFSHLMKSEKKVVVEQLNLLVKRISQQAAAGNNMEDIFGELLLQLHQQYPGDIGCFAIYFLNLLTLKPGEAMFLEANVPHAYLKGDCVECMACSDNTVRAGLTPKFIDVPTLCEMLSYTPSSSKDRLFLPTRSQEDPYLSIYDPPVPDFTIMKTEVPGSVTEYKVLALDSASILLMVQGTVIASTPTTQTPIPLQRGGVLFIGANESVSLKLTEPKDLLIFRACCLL
# test_name: inhibitors of human PMI, primary screen, biochemical, fluorescence intensity, coupled assay (AID 1209);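 further: plate controls were DMSO vehicle for no effect and wells lacking substrate for full effect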
# condition_set: purified PMI enzyme, at 20 µM, stronger effect = higher value
Out of some 190,000 compounds screened, about 810 (0.43%) were called active. The entries come from a sample that favours actives as a whole.
Catalogue of inhibition readings, one per entry.
value_kind: inhibition (%)

compound="CCOC(=O)C1CCCN(Cc2cc(=O)oc3cc(C)ccc23)C1 (stereo unspecified)" u=% numeric_value=-10.2
compound=COc1cc(OC)cc(C(=O)N[C@H](C(=O)Nc2nnc(C3CC3)s2)C(C)C)c1 u=% numeric_value=11.7
compound=COc1cccc(OCc2nc(-c3cccc([N+](=O)[O-])c3)no2)c1 u=% numeric_value=4.9
compound=O=C1Nc2ccccc2C12OCCO2 u=% numeric_value=-6.7
compound=O=[N+]([O-])c1cccc(-c2noc(COc3ccccc3)n2)c1 u=% numeric_value=57.3
compound=O=c1[nH]c2c(c3c1CCCC3)CCCC2 u=% numeric_value=16.2
compound=O=C(c1ccccc1)c1coc2c1C(=O)c1ccccc1C2=O u=% numeric_value=-42.6
compound="Oc1c(C(c2ccccc2)N2CCCCC2)sc2ncnn12 (stereo unspecified)" u=% numeric_value=-8.5
compound=COC(=O)c1ccc(-c2nc(O)c3cnccn23)cc1 u=% numeric_value=-13.6
compound=COc1ccc(-c2c(C)n([O-])c3c([n+]2=O)CCC3)cc1OC u=% numeric_value=8
compound=Cc1ccc(-c2nnc(SCC(=O)N/N=C/c3ccccc3C(=O)O)n2-c2ccccc2)cc1 u=% numeric_value=-2.4
